# ASSAY PROCEDURE: reduction of polyQ htt aggregates in cells – imaging, exon1htt(103Q)mCFP cells, high-content imaging, primary screen (AID 483);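 note: compound exposure lasted 3 days before fixation; percent of the per-plate median nuclei count of sample wells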
# SETUP CONDITIONS: exon1htt(103Q)mCFP cell line, aggregate imaging, at 2 µM; measured here: cell count, toxicity
nuclei count listing for selected molecules.
Please format your answer as a value with the unit trailing.

Some molecules with recorded nuclei count:
| MOLECULE | nuclei count |
| --- | --- |
| COc1ccc(NC(=O)Cn2nnc(-c3ccccc3N)n2)cc1OC | 100% |
| O=C(NCc1ccco1)c1cc2n(n1)C(C(F)(F)F)CC(c1ccc(F)cc1)N2 (stereo unspecified) | 109% |
| Cc1ccc(S(=O)(=O)N[C@@H](C)C(=O)N2CCC(C(=O)N3CCC[C@H]3C(=O)O)CC2)cc1 | 102% |
| COC(=O)CN(c1ccc(F)cc1)S(=O)(=O)c1ccccc1 | 86.5% |
| O=C1CC(c2ccco2)CC(O)=C1C=NCCN1CCNCC1 (stereo unspecified) | 114% |
| COCn1c(COc2ccccc2)nc2ccccc21 | 114% |
| COc1ccccc1-n1cnnc1SCC(=O)c1ccc[nH]1 | 96.8% |
| CCN1CCCC1CNCc1ccc(Cl)cc1Cl (stereo unspecified) | 87.1% |
| COc1cccc(-c2cc(C(=O)Nc3c(C)nn(Cc4ccccc4)c3C)no2)c1 | 105% |
| CCOC(=O)N1CCC(O)(c2cc(C)c(C)cc2C)CC1 | 93% |

Next:
Returns the measured nuclei count for the input molecule. Input: CCOC(=O)c1[nH]c(C)c(C(=O)Nc2ccccc2F)c1C
48.5%

* * *

# ASSAY PROCEDURE: Primary imaging screen for DUSP6 inhibitors that restore phospho-Erk in transfected HeLa cells, chemical complementation (AID 609)
# SETUP CONDITIONS: HeLa MKP-3 transfected, phospho-Erk imaging KS statistic; measured here: nuclear c-Myc green intensity z-score; at 10 µM; cells stimulated with TPA for 15 min
Class definitions on z-score: lo = under -0.3, med = from -0.3 up to 0.005, hi = 0.005 and over

| COMPOUND | LABEL CLASS |
| --- | --- |
| CN(C)CCOC(c1ccccc1)c1ccccc1 (tested in a mixture with another compound) | hi |
| CN1[C@@H]2CC(OC(=O)[C@H](CO)c3ccccc3)C[C@H]1[C@@H]1O[C@@H]12 (stereo not given in full) | med |

Kindly state the category for this compound: COc1ccc(OC)c(N=C(C)C2=C(O)COC2=O)c1
hi

Kindly state the category for this compound: COc1ccc2cc([C@H](C)C(=O)O)ccc2c1
hi

Kindly state the category for this compound: COc1cc(C(=O)Nc2ccccn2)cc(OC)c1OC
lo

Kindly state the category for this compound: COC(=O)Nc1nc2ccc(C(=O)c3ccccc3)cc2[nH]1
med

Kindly state the category for this compound: CC1(C)S[C@@H]2[C@H](NC(=O)Cc3ccccc3)C(=O)N2[C@H]1C(=O)O
lo

Kindly state the category for this compound: COc1cc2nc(N3CCN(C(=O)C4CCCO4)CC3)nc(N)c2cc1OC (stereo not given)
med

Kindly state the category for this compound: CC(=O)[C@@]1(O)CC[C@H]2[C@@H]3C[C@H](C)C4=CC(=O)C=C[C@]4(C)[C@@]3(F)[C@@H](O)C[C@@]21C
hi

Kindly state the category for this compound: CN(C)CCCN1c2ccccc2CCc2ccccc21
lo

* * *

inhibition listing for selected compounds.
# ASSAY PROCEDURE: TLR3 IRF3 reporter activation blockers – cell-based, poly I:C stimulus, luciferase, 10K MLSCN set, primary screen (AID 602277)
# SETUP CONDITIONS: HEK293-TLR3 RL24 IRF3 luciferase reporter, at 10 µM, stronger effect = higher value
Provide only the numeric value, understood in %.

Some compounds with recorded inhibition:
| COMPOUND | MEASURED VALUE |
| --- | --- |
| CC(C(=O)N1CCc2ccccc21)N1CCc2ccccc2C1 (stereo unspecified) | 22.3 |
| CCn1c(=O)n(CC(=O)N(C)Cc2ccccc2)c(=O)c2ccccc21 | 10.9 |
| COc1ccccc1NC(=O)C(O)C(O)C(=O)Nc1ccccc1OC (stereo unspecified) | -0.666 |
| Cc1nc2ccc(NC(=O)N3CCOCC3)cc2s1 | 8.12 |
| COc1ccccc1NC(=O)CC(NCc1ccccc1)C(=O)O (stereo unspecified) | 5.77 |

Returns the measured inhibition for the input compound. Input: COc1cc(-c2nnc(SCC(=O)c3cc(C)n(CC4CCCO4)c3C)o2)cc(OC)c1OC (stereo unspecified)
27.1

Returns the measured inhibition for the input compound. Input: O=C(CSc1nc2c(sc3ccccc32)c(=O)n1Cc1ccco1)NCC1CCCO1 (stereo unspecified)
20.3

Returns the measured inhibition for the input compound. Input: CNC(=O)Oc1ccc2c(c1)[C@]1(C)CCN(C)[C@@H]1N2C
36.1

Returns the measured inhibition for the input compound. Input: Cc1cc(NC(=O)NC(=O)c2cccc(OC(F)(F)C(F)F)c2)n[nH]1
-48.5

Returns the measured inhibition for the input compound. Input: COc1ccccc1CNS(=O)(=O)c1cccc(S(=O)(=O)N2CCOCC2)c1
19.2

Returns the measured inhibition for the input compound. Input: Cc1ccc(CC23CN4CCN(CC(C4)C2O)C3)c(C)c1 (stereo unspecified)
14.1

* * *

# ASSAY PROCEDURE: loss of swimming-algae plug formation – whole organism, Chlamydomonas reinhardtii, WT vs cilia-less mutant, absorbance, 96-well, primary screen (AID 463189);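 note: 0% = wild type cc124 cells in DMSO and 100% = ciliumless bld1 mutant cells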
# SETUP CONDITIONS: Chlamydomonas reinhardtii gravitaxis, OD600 absorbance, 2 days; at 10 µM; stronger effect = higher value
inhibition listing for selected compounds.
Provide only the numeric value, understood in %.

| COMPOUND | inhibition (%) |
| --- | --- |
| Clc1ccc(N2CCN(Cc3c[nH]c4ncccc34)CC2)cc1 | 5.9 |
| Clc1ccc(C(c2ccccc2Cl)C(Cl)Cl)cc1 (configuration not stated) | 11.1 |
| CCn1c(=O)[nH]c2cc(Cl)c(Cl)cc21 | 1.13 |
| CCN(CC)C(C)C(=O)N1c2ccccc2Sc2ccccc21 (configuration not stated) | 40.1 |
| O=C(CCN1CCc2ccccc21)c1ccc2c(c1)OCCO2 | 3.69 |

Returns the measured inhibition for the input compound. Input: Cn1cnc2c(NCc3ccccc3)nc(NCCO)nc21
5.79

Returns the measured inhibition for the input compound. Input: OC[C@H]1NC[C@@H](O)[C@@H]1O
-9.59

Returns the measured inhibition for the input compound. Input: CCOc1ccc2nc(S(N)(=O)=O)sc2c1
31

Returns the measured inhibition for the input compound. Input: COc1cc(C)nc(Oc2ccc(=O)[nH]n2)n1
34.1

* * *

# ASSAY PROCEDURE: endothelial E-selectin expression blockers – imaging, HUVEC, immunofluorescence, MLSMR starter and 10KST1 sets, primary screen (AID 487);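 note: signal is fraction of cell area covered by stained E-selectin grains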
# SETUP CONDITIONS: HUVEC TNFalpha-induced E-selectin immunofluorescence imaging, at 2 µM; stronger effect = higher value
MEASURE: inhibition (%)
Provide only the numeric value, understood in %.

Returns the measured inhibition for the input molecule. Input: Cc1cccc(N2CCN(S(=O)(=O)c3ccc4c(c3)CCC(=O)N4)CC2C)c1 (stereo not drawn)
-29.6

Returns the measured inhibition for the input molecule. Input: COc1cccc(C(=O)OCCN(C)C(C)(C)C)c1
-23.7

Returns the measured inhibition for the input molecule. Input: Cc1cccc(CN2CCN(C(c3ccccc3)c3ccc(Cl)cc3)CC2)c1 (stereo not drawn)
-28.5

Returns the measured inhibition for the input molecule. Input: O=C(NCCN1CCCC1)C1COc2ccccc2O1 (stereo not drawn)
-28.7

Returns the measured inhibition for the input molecule. Input: O=C(NCCc1cccc(Cl)c1)c1cccnc1
-194

Returns the measured inhibition for the input molecule. Input: O=C(OCCCN1C(=O)c2ccccc2C1=O)c1ccco1
33.4

Returns the measured inhibition for the input molecule. Input: Cc1cc(C2C(C#N)=C(N)SC(N)=C2C#N)c(C)s1
-27.1

* * *

# ASSAY PROCEDURE: inhibitors of TNFa-induced NFkB p65 translocation, primary screen, imaging, HUVEC, MLSMR starter and 10KST1 sets (AID 438);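 note: compound added about 3h40 before a 20 min TNFalpha stimulation; signal is the nuclear over cytoplasmic p65 intensity ratio per well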
# SETUP CONDITIONS: HUVEC TNFa-induced p65 nuclear translocation; at 2 µM, stronger effect = higher value, 0% TNFa-plus-vehicle, 100% no-TNFa wells
MEASURE: inhibition (%)
Provide only the numeric value, understood in %.

Some molecules with recorded inhibition:
| MOLECULE | DISPLAY UNIT | inhibition |
| --- | --- | --- |
| COc1ccccc1OCCn1c(=O)sc2ccccc21 | % | 9.8 |
| Cc1ccc2c(c1C)NC(C)CC2C (configuration not stated) | % | 9.8 |
| Cc1csc(SCC(=O)NC(=O)NCc2ccccc2)n1 | % | -17.1 |
| CS(=O)(=O)Nc1ccc(C(=O)NCc2ccco2)cc1 | % | -0.3 |
| C=C(C)CSc1nnc2[nH]c(=O)cc(N)n12 | % | 0 |

Returns the measured inhibition for the input molecule. Input: COc1cccc(CNC(=O)CCn2c(=O)oc3ccccc32)c1
-11.3

Returns the measured inhibition for the input molecule. Input: Cc1cc(C)c(Cn2c(=O)n(CCCC(=O)NCc3ccco3)c(=O)c3ccccc32)c(C)c1
-4.2

Returns the measured inhibition for the input molecule. Input: O=c1oc2ccccc2n1CCn1c2ccccc2c2nc3ccccc3nc21
-7.8

Returns the measured inhibition for the input molecule. Input: CCOC(=O)CCC(=O)c1c(C)oc2ccc(OC)cc12
-6.3

Returns the measured inhibition for the input molecule. Input: O=C(NC1CCCC1)c1c[nH]c2ccc(F)cc2c1=O
-4

Returns the measured inhibition for the input molecule. Input: CCOCCCNc1ncnc2c1[nH]c1ccccc12
7.8

Returns the measured inhibition for the input molecule. Input: Cc1ccc(S(=O)(=O)Cc2ccc(C(=O)NCCCN3CCN(C)CC3)o2)cc1
2.3
